# Tested on: HIV-1 strain 92HT599
# testProtocol: Antiviral activity: p24 estimation in MT2 cells infected with HIV-1
# Type: cell-based
# conditionNotes: Human immunodeficiency virus 1; 0.01 μM; MT2 cells, HIV-1 92HT599, p24, ~96 hours
measuredQuantity: inhibition at 0.01 µM (%)
Provide the reading as a plain figure in %.

>>> reportedresult("CC(C)C1=C2[C@H]3CC[C@@H]4[C@@]5(C)CC[C@H](OC(=O)[C@H]6C[C@@H](C(=O)O)C6(C)C)C(C)(C)[C@@H]5CC[C@@]4(C)[C@]3(C)CC[C@@]2(C(=O)N2CCC[C@H]2CN2CCC(F)CC2)CC1=O")
97
>>> reportedresult("CC(C)C1=C2[C@H]3CC[C@@H]4[C@@]5(C)CC[C@H](OC(=O)[C@H]6C[C@@H](C(=O)O)C6(C)C)C(C)(C)[C@@H]5CC[C@@]4(C)[C@]3(C)CC[C@@]2(C(=O)N2CC[C@@H](N3CCCC3)C2)CC1=O")
100
>>> reportedresult("CC(C)C1=C2[C@H]3CC[C@@H]4[C@@]5(C)CC[C@H](OC(=O)[C@H]6C[C@@H](C(=O)O)C6(C)C)C(C)(C)[C@@H]5CC[C@@]4(C)[C@]3(C)CC[C@@]2(C(=O)N2CCC[C@H]2C(C)(C)O)CC1=O")
100

Please report inhibition at 0.01 µM for the following compound: CC(C)C1=C2[C@H]3CC[C@@H]4[C@@]5(C)CC[C@H](OC(=O)[C@H]6C[C@@H](C(=O)O)C6(C)C)C(C)(C)[C@@H]5CC[C@@]4(C)[C@]3(C)CC[C@@]2(C(=O)N2CCC[C@H]2CN2CCC(F)(F)C2)CC1=O 100

Please report inhibition at 0.01 µM for the following compound: CC(C)C1=C2[C@H]3CC[C@@H]4[C@@]5(C)CC[C@H](OC(=O)[C@H]6C[C@@H](C(=O)O)C6(C)C)C(C)(C)[C@@H]5CC[C@@]4(C)[C@]3(C)CC[C@@]2(C(=O)N(CCN(C)C)Cc2ccc(Cl)cc2)CC1=O 100

Please report inhibition at 0.01 µM for the following compound: CC(C)C1=C2[C@H]3CC[C@@H]4[C@@]5(C)CC[C@H](OC(=O)[C@H]6C[C@@H](C(=O)O)C6(C)C)C(C)(C)[C@@H]5CC[C@@]4(C)[C@]3(C)CC[C@@]2(C(=O)NC(C)(C)CO)CC1=O 97

Please report inhibition at 0.01 µM for the following compound: CC(C)C1=C2[C@H]3CC[C@@H]4[C@@]5(C)CC[C@H](OC(=O)[C@H]6C[C@@H](C(=O)O)C6(C)C)C(C)(C)[C@@H]5CC[C@@]4(C)[C@]3(C)CC[C@@]2(C(=O)N2CCC[C@H]2CN2CCCC2)CC1=O 96
